# tested-target: UniProtKB O60341
property: IC50

Looking up CCCSc1nc(NCCN)c2nnn(Cc3ccc(Cl)cc3)c2n1 , I found its IC50 recorded as > 100 µM

====

For each entry below, report its IC50 value.
# tested-target: UniProt:Q96RU2
# method: biochemical
# Type: biochemical
Numbers only, in µM.

Each compound below has a recorded value; state its IC50.
1. C#CCSc1nc(NCCN)c2nnn(Cc3ccc(Cl)cc3)c2n1 [Compound 24]
2. CCCSc1nc(NCc2cccnc2)c2nnn(Cc3ccccc3)c2n1 [Compound 6]
3. NCCNc1ncnc2c1nnn2Cc1ccc(Cl)cc1 [Compound 21]
4. CCCSc1nc(NCCNC)c2nnn(Cc3ccccc3)c2n1 [Compound 11]
5. CCCSc1nc(NCCN)c2nnn(Cc3ccc(O)cc3)c2n1 [Compound 16]
6. NCCNc1nc(SCc2ccccc2)nc2c1nnn2Cc1ccc(Cl)cc1 [Compound 22]
7. Cc1nc(NCCN)c2nnn(Cc3ccc(Cl)cc3)c2n1 [Compound 23]

1: 14.5; 2: 20.5; 3: 12.3; 4: 8.55; 5: 28.7; 6: 23.3; 7: 34.8

====

# tested-target: USP28 (Homo sapiens, UniProt Q96RU2)
# method: biochemical
# Type: biochemical
property: pIC50
Give bare numbers, as −log10 of the molar value.

- CCCSc1nc(NCCN)c2nnn(Cc3ccc(Br)cc3)c2n1: 5.22
- CCCSc1nc(NCCN)c2nnn(CCCc3ccccc3)c2n1: 4.56
- CCCSc1nc(NCCN)c2nnn(Cc3ccccc3)c2n1: 5.36
- CCCSc1nc(NCCN)c2nnn(CCc3c[nH]c4ccccc34)c2n1: 4.61
- CCCSc1nc(N2CCNCC2)c2nnn(Cc3ccccc3)c2n1: 4.99

Reported pIC50 of CCCSc1nc(NCCN)c2nnn(Cc3ccccc3Cl)c2n1 : 4.88

====

# System: GES-1 cells
# method: cells
# study-conditions: Homo sapiens, GES1, 72 h, read-out: IC50 cell viability GES-1
property: IC50 (µM)
Numbers only, in µM.

CCCSc1nc(NCCN)c2nnn(Cc3ccc(Cl)cc3)c2n1 yielded IC50 of 9.19

====

Would you mind telling me the reported Kd of each entry?
# tested-target: USP28 (Homo sapiens)
# Sequence (Q96RU2 1-700): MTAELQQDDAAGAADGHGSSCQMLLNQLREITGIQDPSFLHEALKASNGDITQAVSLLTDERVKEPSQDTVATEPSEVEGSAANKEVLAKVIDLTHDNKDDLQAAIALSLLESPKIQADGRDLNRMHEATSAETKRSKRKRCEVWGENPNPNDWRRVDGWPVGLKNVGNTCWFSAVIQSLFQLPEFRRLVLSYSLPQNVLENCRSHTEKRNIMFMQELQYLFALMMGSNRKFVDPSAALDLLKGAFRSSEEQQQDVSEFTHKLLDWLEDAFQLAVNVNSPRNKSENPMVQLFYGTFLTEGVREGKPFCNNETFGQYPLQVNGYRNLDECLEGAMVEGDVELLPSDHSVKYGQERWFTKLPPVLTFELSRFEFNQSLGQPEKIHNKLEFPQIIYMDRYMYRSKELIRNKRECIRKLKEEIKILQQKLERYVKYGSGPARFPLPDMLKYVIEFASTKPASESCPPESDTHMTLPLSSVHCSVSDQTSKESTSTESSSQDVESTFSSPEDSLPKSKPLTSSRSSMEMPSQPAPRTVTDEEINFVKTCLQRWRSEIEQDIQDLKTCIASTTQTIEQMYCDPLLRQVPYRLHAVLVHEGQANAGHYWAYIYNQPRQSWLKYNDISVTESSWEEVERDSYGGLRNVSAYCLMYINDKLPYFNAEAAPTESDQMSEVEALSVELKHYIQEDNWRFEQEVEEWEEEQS
Numbers only, in µM.

• CCCSc1nc(NCCN)c2nnn(Cc3ccccc3)c2n1 = 0.09

Documented Kd of CCCSc1nc(NCCN)c2nnn(Cc3ccc(Cl)cc3)c2n1 : 0.04

====

# tested-target: USP28 (Homo sapiens, UniProt Q96RU2)
# Sequence (Q96RU2 1-700): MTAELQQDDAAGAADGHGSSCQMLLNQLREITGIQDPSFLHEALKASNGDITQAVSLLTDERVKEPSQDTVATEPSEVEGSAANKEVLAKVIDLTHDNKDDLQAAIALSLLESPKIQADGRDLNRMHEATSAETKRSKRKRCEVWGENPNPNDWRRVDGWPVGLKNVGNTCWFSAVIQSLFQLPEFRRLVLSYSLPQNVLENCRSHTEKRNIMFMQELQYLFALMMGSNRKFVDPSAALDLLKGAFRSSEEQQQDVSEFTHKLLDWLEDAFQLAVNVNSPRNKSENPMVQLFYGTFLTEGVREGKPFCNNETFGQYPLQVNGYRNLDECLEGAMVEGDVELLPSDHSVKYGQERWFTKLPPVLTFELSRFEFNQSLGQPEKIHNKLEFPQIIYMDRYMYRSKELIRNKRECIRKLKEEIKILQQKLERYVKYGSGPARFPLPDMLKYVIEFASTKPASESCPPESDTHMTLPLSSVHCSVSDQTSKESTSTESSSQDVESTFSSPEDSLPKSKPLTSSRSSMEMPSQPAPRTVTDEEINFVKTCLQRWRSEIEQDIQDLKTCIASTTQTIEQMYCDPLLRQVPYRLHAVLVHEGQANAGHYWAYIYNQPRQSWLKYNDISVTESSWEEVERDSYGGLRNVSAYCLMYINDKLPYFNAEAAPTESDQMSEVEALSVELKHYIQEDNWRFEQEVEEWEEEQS
# method: biochemical
# Type: biochemical
# study-conditions: read-out: Inhibition rate at 12.5 μmol/L (%)
property: inhibition at 12.5 µM

* CCCSc1nc(NCCN)c2nnn(Cc3ccccc3Cl)c2n1 | 56%
* CCCSc1nc(NCCN)c2nnn(Cc3ccccc3)c2n1 | 80%
* CCCSc1nc(NCCN)c2nnn(CCc3c[nH]c4ccccc34)c2n1 | 34%

The measured inhibition at 12.5 µM associated with CCCSc1nc(N2CCNCC2)c2nnn(Cc3ccccc3)c2n1 reads 50%

====

# tested-target: USP7 (Homo sapiens)
# Sequence (Q93009 whole entry, species assumed): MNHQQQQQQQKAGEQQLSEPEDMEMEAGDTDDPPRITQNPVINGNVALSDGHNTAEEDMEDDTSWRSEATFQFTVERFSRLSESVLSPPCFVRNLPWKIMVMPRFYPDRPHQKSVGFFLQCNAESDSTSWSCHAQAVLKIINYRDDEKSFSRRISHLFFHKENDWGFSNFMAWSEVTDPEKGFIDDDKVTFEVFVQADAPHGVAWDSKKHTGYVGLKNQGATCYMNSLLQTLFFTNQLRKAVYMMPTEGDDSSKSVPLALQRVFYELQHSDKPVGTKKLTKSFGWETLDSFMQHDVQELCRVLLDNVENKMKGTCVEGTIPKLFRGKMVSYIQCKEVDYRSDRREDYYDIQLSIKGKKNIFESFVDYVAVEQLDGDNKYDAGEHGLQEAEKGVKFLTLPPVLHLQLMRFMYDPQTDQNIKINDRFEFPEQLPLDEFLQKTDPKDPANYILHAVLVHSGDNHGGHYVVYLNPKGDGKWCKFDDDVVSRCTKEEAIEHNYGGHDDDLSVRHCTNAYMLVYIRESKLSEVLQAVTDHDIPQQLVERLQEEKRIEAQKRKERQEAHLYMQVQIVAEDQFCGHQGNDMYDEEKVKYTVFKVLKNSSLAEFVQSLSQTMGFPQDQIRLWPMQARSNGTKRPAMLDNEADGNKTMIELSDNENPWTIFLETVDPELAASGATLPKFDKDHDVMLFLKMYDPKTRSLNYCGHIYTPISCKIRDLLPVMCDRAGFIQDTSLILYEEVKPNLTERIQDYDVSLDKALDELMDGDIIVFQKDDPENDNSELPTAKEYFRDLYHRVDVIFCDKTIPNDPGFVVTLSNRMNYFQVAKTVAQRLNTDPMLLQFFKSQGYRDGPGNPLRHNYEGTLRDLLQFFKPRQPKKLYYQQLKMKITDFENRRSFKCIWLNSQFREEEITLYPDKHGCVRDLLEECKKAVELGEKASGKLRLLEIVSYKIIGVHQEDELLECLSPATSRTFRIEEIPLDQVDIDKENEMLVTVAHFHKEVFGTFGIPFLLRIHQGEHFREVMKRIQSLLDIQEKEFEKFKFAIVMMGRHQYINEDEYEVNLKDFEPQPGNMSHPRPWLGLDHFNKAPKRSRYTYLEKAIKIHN
pIC50: −log10 of the molar value.
property: pIC50

Note to self: pIC50 recorded for CCCSc1nc(NCCN)c2nnn(Cc3ccc(Cl)cc3)c2n1 was < 4.00

====

# tested-target: USP28 (Homo sapiens, UniProt Q96RU2)
# method: biochemical
# Type: biochemical
# study-conditions: read-out: IC50 against USP28; Ub-AMC 100 nmol/L, USP28 62.5 nmol/L
property: IC50 (µM)
One number for each entry, in µM.

For reference, reported IC50 for CCCSc1nc(NCc2ccco2)c2nnn(Cc3ccccc3)c2n1 stands at 14.2

====

# tested-target: USP28 (Homo sapiens)
# method: biochemical
# Assay type: biochemical
# study-conditions: read-out: Inhibition rate at 12.5 μmol/L (%)
What inhibition at 12.5 µM was measured for each of the following?
One number for each entry, in %.

Check out these entries, answers already filled in.
* CCCSc1nc(NCc2ccco2)c2nnn(Cc3ccccc3)c2n1 | 45.6
* CCCSc1nc(NCCNC)c2nnn(Cc3ccccc3)c2n1 | 61.7
* Cc1nc(NCCN)c2nnn(Cc3ccc(Cl)cc3)c2n1 | 35

Lab note: each compound below needs its inhibition at 12.5 µM filled in.
1. C#CCSc1nc(NCCN)c2nnn(Cc3ccc(Cl)cc3)c2n1
2. CCCSc1nc(NCCN)c2nnn(Cc3ccc(O)cc3)c2n1

1: 59.9; 2: 36.2

Look up inhibition at 12.5 µM for the entries below, preserving their order.
1. CCCSc1nc(NCCN)c2nnn(Cc3ccc(Cl)cc3)c2n1
2. NCCNc1nc(SCc2ccccc2)nc2c1nnn2Cc1ccc(Cl)cc1
3. CCCSc1nc(NCc2cccnc2)c2nnn(Cc3ccccc3)c2n1
4. CCCSc1nc(NCCN)c2nnn(Cc3ccc(Br)cc3)c2n1

[90, 45, 23.1, 76.7]

Measured inhibition at 12.5 µM for this entry NCCNc1ncnc2c1nnn2Cc1ccc(Cl)cc1 on USP28 (Homo sapiens): 62.2

====

# tested-target: USP28 (Homo sapiens)
# method: biochemical
# Format: biochemical
pIC50: −log10 of the molar value.
Please respond with reported pIC50 for every item in the list.

Solved cases (2 shown):
* CCCSc1nc(NCCN)c2nnn(CCNC(=O)OC(C)(C)C)c2n1 | < 4.00
* CCCSc1nc(NCCNC(C)=O)c2nnn(Cc3ccc(Cl)cc3)c2n1 | < 4.00

Please turn your attention to the following entry.
Result for CCCSc1nc(NCCNC(=O)OC(C)(C)C)c2nnn(Cc3ccccc3)c2n1 , tested on USP28 (Homo sapiens), pIC50: < 4.00

Where do these numbers come from? They come from paper PMC7488365.
